# Tested on: Klebsiella aerogenes DSM 30053
# test.details: fold change of Putrescine concentration vs plate DMSO controls (fold change (ratio)); higher = more amine produced, active = hit call of the paper (significant change in both replicates, either direction)
# experimental.context: 20 µM; incubation time: 27 h, anaerobic, 37 °C
Structures can show the parent of a compound that is named as a salt.
readout.name: fold change of Putrescine concentration
Keep it simple and answer with nothing but the number.

compound | measured.value
COc1ccc2c(c1)[C@]13CCCC[C@@H]1[C@H](C2)N(C)CC3 [Dextromethorphan hydrobromide monohydrate] | 0.999

Problem: Given CC(Cc1ccc(O)cc1)NCC(O)c1cc(O)cc(O)c1 (stereo not given) [Fenoterol hydrobromide] , state its recorded fold change of Putrescine concentration.
Solution: 1.04

Problem: Given "Oc1ccc(Cl)cc1Cc1cc(Cl)ccc1O" , state its recorded fold change of Putrescine concentration.
Solution: 0.996

Problem: Given "CS(=O)(=O)c1cc(C(F)(F)F)ccc1C(=O)c1cnoc1C1CC1" , state its recorded fold change of Putrescine concentration.
Solution: 0.976

* * *

Collected fold change of Histamine concentration values appear next to each entry.
# System: Klebsiella aerogenes DSM 30053
# test.details: fold change of Histamine concentration vs plate DMSO controls (fold change (ratio)); higher = more amine produced, active = hit call of the paper (significant change in both replicates, either direction)
# experimental.context: 20 µM; incubation time: 27 h, anaerobic, 37 °C
Counter-ions that a name gives are not always drawn.

Examples with their reported fold change of Histamine concentration follow.
compound | measured.value
NCCc1c[nH]c2ccc(O)cc12 [Serotonin hydrochloride] | 1.1 (inactive)
CCCN(CCC)N=O | 1.01 (inactive)
C[C@@H]1CC[C@H]2[C@@H](C)C(=O)O[C@@H]3O[C@@]4(C)CC[C@@H]1[C@]32OO4 | 1.01 (inactive)

Problem: Lab note: need fold change of Histamine concentration with Klebsiella aerogenes DSM 30053 for entry "O=P(Oc1ccccc1)(Oc1ccccc1)Oc1ccccc1" , please look it up.
Solution: 0.998 (inactive)

Problem: Lab note: need fold change of Histamine concentration with Klebsiella aerogenes DSM 30053 for entry "CNC(=O)CSP(=S)(OC)OC" , please look it up.
Solution: 1.07 (inactive)

* * *

# System: Klebsiella aerogenes DSM 30053
# test.details: fold change of Putrescine concentration vs plate DMSO controls (fold change (ratio)); higher = more amine produced, active = hit call of the paper (significant change in both replicates, either direction)
# experimental.context: 20 µM; incubation time: 27 h, anaerobic, 37 °C
Classification field: enter Condition met for fold change of Putrescine concentration values not below 1, Condition not met for values below it.

compound | cat
CC(COc1ccc(Oc2ccccc2)cc1)Oc1ccccn1 (centres undefined) | Condition met
COP(=O)(OC)OC=C(Cl)Cl | Condition not met
O=C1C2(Cl)C3(Cl)C4(Cl)C(Cl)(Cl)C5(Cl)C3(Cl)C1(Cl)C5(Cl)C24Cl (centres undefined) | Condition met

Problem: Decide: is the reported value of fold change of Putrescine concentration for C[C@@H]1C[C@@H]([C@H](O)CC2CC(=O)NC(=O)C2)C(=O)[C@@H](C)C1 [Cycloheximide] equal to or greater than 1?
Solution: Condition met

* * *

# System: Ruminococcus gnavus DSM 108212
# test.details: fold change of 2-Phenylethylamine concentration vs plate DMSO controls (fold change (ratio)); higher = more amine produced, active = hit call of the paper (significant change in both replicates, either direction)
# experimental.context: 20 µM; incubation time: 27 h, anaerobic, 37 °C
Structures can show the parent of a compound that is named as a salt.
readout.name: fold change of 2-Phenylethylamine concentration
Keep it simple and answer with nothing but the number.

compound | measured.value
CS(=O)(=O)NC(=O)c1cc(Oc2ccc(C(F)(F)F)cc2Cl)ccc1[N+](=O)[O-] | 0.99
CN1C[C@H](C(=O)N[C@]2(C)O[C@@]3(O)[C@@H]4CCCN4C(=O)[C@H](Cc4ccccc4)N3C2=O)C[C@@H]2c3cccc4[nH]cc(c34)C[C@H]21 [Dihydroergotamine tartrate] | 0.921
C[C@]12CCC(=O)C=C1C=C[C@@H]1[C@@H]2CC[C@@]2(C)[C@H]1CC[C@@]2(O)CCC(=O)O [Canrenoic acid potassium salt] | 1.09

Problem: Given "O=NN(CCO)CCO" , state its recorded fold change of 2-Phenylethylamine concentration.
Solution: 1.08

Problem: Given "c1cc2c3c(cccc3c1)CC2" , state its recorded fold change of 2-Phenylethylamine concentration.
Solution: 1.05

Problem: Given "O=C(CCCN1CCC(n2c(=O)[nH]c3ccccc32)CC1)c1ccc(F)cc1" , state its recorded fold change of 2-Phenylethylamine concentration.
Solution: 1.05

Problem: Given CCCC(Cn1cncn1)c1ccc(Cl)cc1Cl (centres undefined) , state its recorded fold change of 2-Phenylethylamine concentration.
Solution: 0.953

Problem: Given COP(=O)(NC(C)=O)SC (centres undefined) , state its recorded fold change of 2-Phenylethylamine concentration.
Solution: 1

* * *

# Tested on: Clostridium sporogenes DSM 1664
# test.details: growth (OD595) fold change vs plate DMSO controls (fold change (ratio)); higher = more growth
# experimental.context: 20 µM; incubation time: 27 h, anaerobic, 37 °C
Classification field: enter class 1 for growth values not below 1, class 0 for values below it.

Problem: Decide: is the reported value of growth for CC1(C)C(C=C(Cl)Cl)C1C(=O)OC(C#N)c1ccc(F)c(Oc2ccccc2)c1 (mixture of isomers) equal to or greater than 1?
Solution: class 0

Problem: Decide: is the reported value of growth for "Oc1ccc(Cc2ccc(O)cc2)cc1" equal to or greater than 1?
Solution: class 0

Problem: Decide: is the reported value of growth for "CS(=O)(=O)NC(=O)c1cc(Oc2ccc(C(F)(F)F)cc2Cl)ccc1[N+](=O)[O-]" equal to or greater than 1?
Solution: class 0

* * *

Collected growth values appear next to each entry.
# System: Klebsiella aerogenes DSM 30053
# test.details: growth (OD595) fold change vs plate DMSO controls (fold change (ratio)); higher = more growth
# experimental.context: 20 µM; incubation time: 27 h, anaerobic, 37 °C
Structures can show the parent of a compound that is named as a salt.
Keep it simple and answer with nothing but the number.

Examples with their reported growth follow.
compound | growth
CC[C@@]1([C@@H]2O[C@@H]([C@H]3O[C@@](O)(CO)[C@H](C)C[C@@H]3C)C[C@@H]2C)CC[C@H]([C@]2(C)CC[C@]3(C[C@H](O)[C@@H](C)[C@@H]([C@@H](C)[C@@H](OC)[C@H](C)C(=O)O)O3)O2)O1 [Monensin sodium salt] | 1
Oc1ccc(Cc2ccc(O)cc2)cc1 | 0.989
CCOC(=O)OC1=C(c2cc(C)ccc2C)C(=O)N[C@]12CC[C@@H](OC)CC2 | 0.993

Problem: Given Fc1ccc([C@]2(Cn3cncn3)O[C@H]2c2ccccc2Cl)cc1 (racemic) , state its recorded growth.
Solution: 0.994

Problem: Given "NC(=O)CN1CCCC1=O" , state its recorded growth.
Solution: 0.984

* * *

# System: Ruminococcus gnavus DSM 108212
# test.details: fold change of Tryptamine concentration vs plate DMSO controls (fold change (ratio)); higher = more amine produced, active = hit call of the paper (significant change in both replicates, either direction);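 for the amine columns active = adjusted P below 0.05 in both replicates with a change the same way and a mean fold change under 0.8 or over 1.25; inactive = the rest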
# experimental.context: 20 µM; incubation time: 27 h, anaerobic, 37 °C
# output must be one of 1.0 for active, 0.0 for inactive

Field: example entries. Status: answers known.
compound | cat
CNC(=O)CSP(=S)(OC)OC | 0.0
CN(C)C(=O)Oc1ccc[n+](C)c1 [Pyridostigmine iodide] | 0.0

Would you kindly look at the next entry?
Problem: Each compound tested received a call. Report the one for "OC(c1ccccc1)(c1ccccc1)C1CCNCC1" .
Solution: 0.0

* * *

# System: Klebsiella aerogenes DSM 30053
# test.details: growth (OD595) fold change vs plate DMSO controls (fold change (ratio)); higher = more growth
# experimental.context: 20 µM; incubation time: 27 h, anaerobic, 37 °C
readout.name: growth
Keep it simple and answer with nothing but the number.

Examples with their reported growth follow.
compound | readout.name | measured.value
Cc1cccc(C)c1NC(=O)CN1CCCC1=O | growth | 1.02
C1CCc2nnnn2CC1 | growth | 1
N#CCNC(=O)c1cnccc1C(F)(F)F | growth | 0.999

Problem: Given C[C@]12CC[C@H](O)C[C@@H]1CC[C@@H]1[C@@H]2CC[C@]2(C)C(=O)CC[C@@H]12 [Epiandrosterone] , state its recorded growth.
Solution: 0.974

Problem: Given "CCNc1nc(Cl)nc(NC(C)C)n1" , state its recorded growth.
Solution: 1

Problem: Given "CS(=O)(=O)c1cc(C(F)(F)F)ccc1C(=O)c1cnoc1C1CC1" , state its recorded growth.
Solution: 1.09

* * *

# System: Ruminococcus gnavus DSM 108212
# test.details: fold change of Tryptamine concentration vs plate DMSO controls (fold change (ratio)); higher = more amine produced, active = hit call of the paper (significant change in both replicates, either direction)
# experimental.context: 20 µM; incubation time: 27 h, anaerobic, 37 °C
Structures can show the parent of a compound that is named as a salt.
Collected fold change of Tryptamine concentration values appear next to each entry.
Keep it simple and answer with nothing but the number.

Examples with their reported fold change of Tryptamine concentration follow.
compound | fold change of Tryptamine concentration
Cc1cc(C2CC2)nc(Nc2ccccc2)n1 | 0.968
CC(C)c1c(CN(C)C(C)Cc2ccccc2)n(C)n(-c2ccccc2)c1=O (stereo unspecified) | 1.06
c1ccc2c(c1)OCC(C1=NCCN1)O2 (stereo unspecified) [Idazoxan hydrochloride] | 0.832

Problem: Given C[N+]1(C)[C@@H]2CC[C@H]1C[C@@H](OC(=O)C(CO)c1ccccc1)C2 (stereo partly specified) [Methylatropine nitrate] , state its recorded fold change of Tryptamine concentration.
Solution: 1

Problem: Given "CNC(=O)Oc1cccc2ccccc12" , state its recorded fold change of Tryptamine concentration.
Solution: 0.989

Problem: Given "CO/C=C(/C(=O)OC)c1ccccc1COc1cccc(C(F)(F)F)n1" , state its recorded fold change of Tryptamine concentration.
Solution: 0.996

Problem: Given COc1ccc(CN2CCNCC2)c(OC)c1OC [Trimetazidine dihydrochloride] , state its recorded fold change of Tryptamine concentration.
Solution: 1.03

Problem: Given "CC(C)N(C)S(=O)(=O)NC(=O)c1cc(-n2c(=O)cc(C(F)(F)F)n(C)c2=O)c(F)cc1Cl" , state its recorded fold change of Tryptamine concentration.
Solution: 0.884

Problem: Given "CNC(=O)/C=C(\C)OP(=O)(OC)OC" , state its recorded fold change of Tryptamine concentration.
Solution: 0.985

Problem: Given "CO/N=C(/C(=O)OC)c1ccccc1CO/N=C(\C)c1cccc(C(F)(F)F)c1" , state its recorded fold change of Tryptamine concentration.
Solution: 0.991

Problem: Given "C[C@]12C=CC(=O)C=C1CC[C@@H]1[C@@H]2CC[C@@]2(C)[C@H]1CC[C@]2(C)O" , state its recorded fold change of Tryptamine concentration.
Solution: 1.03

Problem: Given "CC[C@H]1CCC[C@H](O[C@H]2CC[C@H](N(C)C)[C@@H](C)O2)[C@@H](C)C(=O)C2=C[C@@H]3[C@@H](C=C(C)[C@@H]4C[C@@H](O[C@@H]5O[C@@H](C)[C@H](OC)[C@@H](OC)[C@H]5OC)C[C@@H]34)[C@@H]2CC(=O)O1.CC[C@H]1CCC[C@H](O[C@H]2CC[C@H](N(C)C)[C@@H](C)O2)[C@@H](C)C(=O)C2=C[C@H]3[C@@H]4C[C@H](O[C@@H]5O[C@@H](C)[C@H](OC)[C@@H](OC)[C@H]5OC)C[C@H]4C=C[C@H]3C2CC(=O)O1" , state its recorded fold change of Tryptamine concentration.
Solution: 0.984

Problem: Given "O=C1C=C(N(Cc2ccc(Cl)nc2)CC(F)F)CO1" , state its recorded fold change of Tryptamine concentration.
Solution: 1.1

Problem: Given "COCC(=O)N(c1c(C)cccc1C)[C@H](C)C(=O)OC" , state its recorded fold change of Tryptamine concentration.
Solution: 1.02

Problem: Given c1ccc2c(c1)ccc1c3ccccc3sc21 [Benzo[b]naphtho[2,1-d]thiophene] , state its recorded fold change of Tryptamine concentration.
Solution: 1.01

Problem: Given CC[N+]1(C)CCCC(OC(=O)C(O)(c2ccccc2)c2ccccc2)C1 (stereo unspecified) [Pipenzolate bromide] , state its recorded fold change of Tryptamine concentration.
Solution: 0.956
